assay.text: solvent given as SMILES
run.parameters: in CO

>  <molecular.string>
O=S(=O)(/N=c1\oc2cccc3c4c(-c5ccccc5)oc5cccc(c(c1-c1ccccc1)c23)c54)C(F)(F)F

>  <fluorescence lifetime (ns)>
7.5

$$$$
>  <molecular.string>
CCN1C(=CC2=C([O-])C(=Cc3sc4ccccc4[n+]3CC)C2=O)Sc2ccccc21

>  <fluorescence lifetime (ns)>
0.56

$$$$
>  <molecular.string>
O=C1c2ccccc2-c2ccc(Nc3nc(Cl)nc(Cl)n3)c3cccc1c23

>  <fluorescence lifetime (ns)>
7.6

$$$$
>  <molecular.string>
CC1=C2C=CC=[N+]2[B-](F)(F)n2cccc21

>  <fluorescence lifetime (ns)>
6.69

$$$$
>  <molecular.string>
CN(C)CCCN1c2ccccc2CCc2ccc(Cl)cc21

>  <fluorescence lifetime (ns)>
0.19

$$$$
>  <molecular.string>
COC(=O)C[C@H](Cc1c[nH]c2ccccc12)NC(=O)[C@H](CC(=O)N[C@@H](CC1=CCc2ccccc21)C(=O)OC)NC(=O)[C@H](Cc1c[nH]c2ccccc12)NC(=O)OC(C)(C)C

>  <fluorescence lifetime (ns)>
1.86

$$$$
>  <molecular.string>
CN1CCN(CCCN2c3ccccc3Sc3ccc(C(F)(F)F)cc32)CC1

>  <fluorescence lifetime (ns)>
2.52

$$$$
>  <molecular.string>
N#Cc1c2ccccc2cc2ccccc12

>  <fluorescence lifetime (ns)>
16

$$$$
>  <molecular.string>
CCCCCCCCCCN1C(=O)c2cc(NCCCOCCO)c3c4c(cc(NCCCOCCO)c(c24)C1=O)C(=O)N(CCCCCCCCCC)C3=O

>  <fluorescence lifetime (ns)>
7.8

$$$$

* * *

assay.text: solvent given as SMILES
run.parameters: in ClCCl
property.measured: fluorescence lifetime (ns)

>  <compound>
Cc1ccc(-c2cc(-c3ccc(N(C)C)cc3)c3c(N)nc(N4CCCC4)c(C#N)c3n2)cc1

>  <assay.value>
12.6

$$$$
>  <compound>
COC(=O)C(Cc1ccc2oc(-c3ccc(N(C)C)cc3)nc2c1)NC(=O)OC(C)(C)C (configuration not stated)

>  <assay.value>
1.23

$$$$
>  <compound>
O=[N+]([O-])c1ccc2c(c1)-c1c3c(c4c([n+]1[B-](F)(F)O2)CCc1ccccc1-4)CCc1ccccc1-3

>  <assay.value>
0.63

$$$$
>  <compound>
CCCCCCCc1ccc(C2=[N+]3C(=C4c5cc(OCC(CC)CC)c(-c6ccc(CCCCCCC)o6)n5[B-](F)(F)[n+]5nnn(c54)[B-]3(F)F)C=C2OCC(CC)CC)o1

>  <assay.value>
0.3

$$$$
>  <compound>
COc1cc2c(cc1/C=C/C1=CC(=C(C#N)C#N)CC(C)(C)C1)c1ccccc1n2C

>  <assay.value>
6.7

$$$$
>  <compound>
CCCCCCCCCCOc1ccc(C#Cc2cc3c(C#Cc4ccc(OCCCCCCCCCC)cc4)c(C#Cc4ccc(OCCCCCCCCCC)cc4)c4cc(C#Cc5ccc(OCCCCCCCCCC)cc5)cc5c(C#Cc6ccc(OCCCCCCCCCC)cc6)c(C#Cc6ccc(OCCCCCCCCCC)cc6)c(c2)c3c45)cc1

>  <assay.value>
15.3

$$$$
>  <compound>
CC(C)(C)c1ccc2c(c1)c1cc(C(C)(C)C)ccc1n2-c1ccc(C#Cc2cccc(C#Cc3ccc(-n4c5ccc(C(C)(C)C)cc5c5cc(C(C)(C)C)ccc54)cc3)c2)cc1

>  <assay.value>
3.62

$$$$
